- Tested on: HPAF-II
- TEST: Cytotoxicity of compounds, CellTiter-Glo
- Format: cell-based
- MEASUREMENT_SETUP: Homo sapiens, Table 8, read-out: (EC50)
VALUE_KIND: EC50

**Query** Which EC50 reading was recorded for the molecule CN[C@H](C(=O)N[C@H](C(=O)N(C)[C@H](/C=C(\C)C(=O)NS(=O)(=O)Cc1ccccc1)C(C)C)C(C)(C)C)C(C)(C)c1ccccc1 [Compound 14] ?
**Result** ~385 pM

----------
Listing of entries alongside the reported pEC50.
- Tested on: NCI-N87
- TEST: Cytotoxicity of compounds, CellTiter-Glo
- Format: cell-based
- MEASUREMENT_SETUP: Homo sapiens, Table 5, read-out: Cytotoxicity (EC50) NCI-N87
The meaning of pEC50 here: minus log10 of the concentration in molar units.

// solved cases for pEC50 follow
> print(dat)
                                smiles.data  value.kind  test.result
1  CN[C@H](C(=O)N[C@H](C(=O)N(C)[C@H](/C=C(\C)C(=O)NS(=O)(=O)c1ccc(NC(=O)C(F)(F)F)cc1)C(C)C)C(C)(C)C)C(C)(C)c1ccccc1       pEC50         9.40
2  CN[C@H](C(=O)N[C@H](C(=O)N(C)[C@H](/C=C(\C)C(=O)NS(=O)(=O)Cc1ccccc1)C(C)C)C(C)(C)C)C(C)(C)c1ccccc1       pEC50         9.76

**Query** Request - read-out pEC50 | tested on NCI-N87 | molecule `CN[C@H](C(=O)N[C@H](C(=O)N(C)[C@H](/C=C(\C)C(=O)NS(=O)(=O)c1ccc(C)cc1)C(C)C)C(C)(C)C)C(C)(C)c1ccccc1`
**Result** 9.57

The reported measurements were obtained from patent US11617777B2.
